I'd be grateful if you could share measured pEC50 for these entries.
- Tested on: MCF7
- EXPERIMENTAL_PROTOCOL: Cytotoxicity against human MCF7 cells after 96 hrs by sulforhodamine-B assay
- Assay type: functional, cell-based
- EXPERIMENTAL_CONDITIONS: MCF7, 96 h
Answers are plain numbers, as −log10 of the molar value.

Completed entries (count: 6):
INSERT INTO measurements (record_smiles, quantity_name, assay_value) VALUES
  ('CCCCNC(=O)CN(Cc1ccccc1)C(=O)[C@]12CCC(C)(C)C[C@H]1C1=CC[C@@H]3[C@@]4(C)CC[C@H](OC(C)=O)C(C)(C)[C@@H]4CC[C@@]3(C)[C@]1(C)CC2', 'pEC50', 4.66),
  ('CC1(C)CC[C@]2(C(=O)N(CC(=O)NCc3ccccc3)Cc3ccoc3)CC[C@]3(C)C(=CC[C@@H]4[C@@]5(C)CC[C@H](O)C(C)(C)[C@@H]5CC[C@]43C)[C@@H]2C1', 'pEC50', 4.90),
  ('CC(=O)O[C@@H]1C[C@]2(C)[C@H]3CC=C4[C@@H]5CC(C)(C)CC[C@]5(C(=O)O)CC[C@@]4(C)[C@]3(C)CC[C@H]2C(C)(C)[C@H]1OC(C)=O', 'pEC50', 5.80),
  ('COC(=O)CNC(=O)CN(Cc1ccoc1)C(=O)[C@]12CCC(C)(C)C[C@H]1C1=CC[C@@H]3[C@@]4(C)CC[C@H](OC(C)=O)C(C)(C)[C@@H]4CC[C@@]3(C)[C@]1(C)CC2', 'pEC50', 5.15),
  ('C=CCN(CC(=O)NCc1ccccc1)C(=O)[C@]12CCC(C)(C)C[C@H]1C1=CC[C@@H]3[C@@]4(C)CC[C@H](OC(C)=O)C(C)(C)[C@@H]4CC[C@@]3(C)[C@]1(C)CC2', 'pEC50', 4.72),
  ('CC1(C)CC[C@]2(C(=O)N(CC(=O)NC(C)(C)C)Cc3ccccc3)CC[C@]3(C)C(=CC[C@@H]4[C@@]5(C)CC[C@H](O)C(C)(C)[C@@H]5CC[C@]43C)[C@@H]2C1', 'pEC50', 4.83);

Proceeding to the next compound to report its pEC50.
Query: Which measured pEC50 value corresponds to "CC(=O)O[C@@H]1C[C@]2(C)[C@H]3CC=C4[C@@H]5CC(C)(C)CC[C@]5(C(=O)OCC(=O)NCc5ccccc5)CC[C@@]4(C)[C@]3(C)CC[C@H]2C(C)(C)[C@H]1OC(C)=O" ?
Result: 5.44
